Origin of measurements: ChEMBL document CHEMBL1926642

Test system: UACC-62
Assay: Growth inhibition of human UACC62 cells after 48 hrs by sulforhodamine B assay
Format: functional
Conditions: UACC-62, 48 h, read-out: pTGI (converted)
measure-name: TGI (µM)
Answer in µM, number only, no unit symbol.

[[record]]
smiles_repr = "COc1cc(/C=C/c2cc(O)c3c(c2)C[C@@H]2C(C)(C)[C@H](O)CC[C@@]2(C)O3)cc(O)c1C/C=C(\\C)CCC=C(C)C"
unit_annotation = "µM"
data_value = 0.794

[[record]]
smiles_repr = "COc1cc(/C=C/c2cc3c(c(SC)c2)O[C@]2(C)CC[C@@H](O)C(C)(C)[C@H]2C3)cc(O)c1C/C=C(\\C)CCC=C(C)C"
unit_annotation = "µM"
data_value = 28.8


Moving on to the next molecule.
Observed TGI on UACC-62 for `COc1cc(/C=C/c2cc3c(c(OC)c2)O[C@]2(C)CC[C@@H](O)C(C)(C)[C@H]2C3)cc(O)c1C/C=C(\C)CCC=C(C)C` , please. 3.8

---

Tested on: LOX IMVI
Assay: Growth inhibition of human LOXIMVI cells after 48 hrs by sulforhodamine B assay
Format: functional
Conditions: read-out: pTGI (converted)
measure-name: TGI (µM)
Answer in µM, number only, no unit symbol.

Please review the entries below; each comes with its answer.
[[record]]
smiles_repr = "COc1cc(/C=C/c2cc(F)c3c(c2)C[C@@H]2C(C)(C)[C@H](O)CC[C@@]2(C)O3)cc(O)c1C/C=C(\\C)CCC=C(C)C"
unit_annotation = "µM"
data_value = 2.88

[[record]]
smiles_repr = "COc1cc(/C=C/c2cc(O)c3c(c2)C[C@@H]2C(C)(C)[C@H](O)CC[C@@]2(C)O3)cc(O)c1C/C=C(\\C)CCC=C(C)C"
unit_annotation = "µM"
data_value = 1.91


Sample `COCOc1cc(/C=C/c2cc(C=O)c3c(c2)C[C@@H]2C(C)(C)[C@H](O)CC[C@@]2(C)O3)cc(OC)c1C/C=C(\C)CCC=C(C)C` — what was its TGI? 15.8

Sample `COc1cc(/C=C/c2cc3c(c(SC)c2)O[C@]2(C)CC[C@@H](O)C(C)(C)[C@H]2C3)cc(O)c1C/C=C(\C)CCC=C(C)C` — what was its TGI? 13.2

---

# LC50 per record follows
Test system: K562
Assay: Growth inhibition of human K562 cells after 48 hrs by sulforhodamine B assay
Type: functional
Conditions: K562, 48 h

Please review the entries below; each comes with its answer.
[[record]]
smiles_repr = "COCOc1cc(/C=C/c2cc(CO)c3c(c2)C[C@@H]2C(C)(C)[C@H](O)CC[C@@]2(C)O3)cc(OC)c1C/C=C(\\C)CCC=C(C)C"
measure_name = "LC50"
data_value = "> 100 µM"

[[record]]
smiles_repr = "COc1cc(/C=C/c2cc3c(c(SC)c2)O[C@]2(C)CC[C@@H](O)C(C)(C)[C@H]2C3)cc(O)c1C/C=C(\\C)CCC=C(C)C"
measure_name = "LC50"
data_value = "> 100 µM"


Sample `COc1cc(/C=C/c2ccc3c(c2)C[C@@H]2C(C)(C)[C@H](O)CC[C@@]2(C)O3)cc(O)c1C/C=C(\C)CCC=C(C)C` — what was its LC50? > 100 µM

---

Test system: SNB-75
Experiment: Growth inhibition of human SNB75 cells after 48 hrs by sulforhodamine B assay
Format: functional
Details: SNB-75, 48 h, read-out: pTGI (converted)
measure-name: TGI (µM)
Answer in µM, number only, no unit symbol.

Please review the entries below; each comes with its answer.
[[record]]
smiles_repr = "COc1cc(/C=C/c2cc3c(c(OC)c2)O[C@]2(C)CC[C@@H](O)C(C)(C)[C@H]2C3)cc(O)c1C/C=C(\\C)CCC=C(C)C"
measure_name = "TGI"
unit_annotation = "µM"
data_value = 11.7

[[record]]
smiles_repr = "COc1cc(/C=C/c2cc3c(c(SC)c2)O[C@]2(C)CC[C@@H](O)C(C)(C)[C@H]2C3)cc(O)c1C/C=C(\\C)CCC=C(C)C"
measure_name = "TGI"
unit_annotation = "µM"
data_value = 33.1

[[record]]
smiles_repr = "COc1cc(/C=C/c2cc(F)c3c(c2)C[C@@H]2C(C)(C)[C@H](O)CC[C@@]2(C)O3)cc(O)c1C/C=C(\\C)CCC=C(C)C"
measure_name = "TGI"
unit_annotation = "µM"
data_value = 13.8

[[record]]
smiles_repr = "COc1cc(/C=C/c2ccc3c(c2)C[C@@H]2C(C)(C)[C@H](O)CC[C@@]2(C)O3)cc(O)c1C/C=C(\\C)CCC=C(C)C"
measure_name = "TGI"
unit_annotation = "µM"
data_value = 42.7

[[record]]
smiles_repr = "COCOc1cc(/C=C/c2cc(CO)c3c(c2)C[C@@H]2C(C)(C)[C@H](O)CC[C@@]2(C)O3)cc(OC)c1C/C=C(\\C)CCC=C(C)C"
measure_name = "TGI"
unit_annotation = "µM"
data_value = 14.8


Sample `COc1cc(/C=C/c2cc(O)c3c(c2)C[C@@H]2C(C)(C)[C@H](O)CC[C@@]2(C)O3)cc(O)c1C/C=C(\C)CCC=C(C)C` — what was its TGI? 6.31

---

Test system: ACHN
Assay: Growth inhibition of human ACHN cells after 48 hrs by sulforhodamine B assay
Assay type: functional
measure-name: LC50 (µM)
Answer in µM, number only, no unit symbol.

Please review the entries below; each comes with its answer.
[[record]]
smiles_repr = "COc1cc(/C=C/c2cc(F)c3c(c2)C[C@@H]2C(C)(C)[C@H](O)CC[C@@]2(C)O3)cc(O)c1C/C=C(\\C)CCC=C(C)C"
data_value = 58.9

[[record]]
smiles_repr = "COc1cc(/C=C/c2cc3c(c(OC)c2)O[C@]2(C)CC[C@@H](O)C(C)(C)[C@H]2C3)cc(O)c1C/C=C(\\C)CCC=C(C)C"
data_value = 21.4


Moving on to the next compound.
Sample `COc1cc(/C=C/c2cc(O)c3c(c2)C[C@@H]2C(C)(C)[C@H](O)CC[C@@]2(C)O3)cc(O)c1C/C=C(\C)CCC=C(C)C` — what was its LC50? 36.3

---

Tested on: HCT-15
Assay: Growth inhibition of human HCT15 cells after 48 hrs by sulforhodamine B assay
Assay type: functional
Settings: HCT-15, 48 h
Response field label: string, one of Fulfilled (GI50 strictly below 3000 nM) or Not fulfilled.

[[record]]
smiles_repr = "COc1cc(/C=C/c2cc(O)c3c(c2)C[C@@H]2C(C)(C)[C@H](O)CC[C@@]2(C)O3)cc(O)c1C/C=C(\\C)CCC=C(C)C"
assigned_label = "Fulfilled"


Could you please tell me whether GI50 recorded for `COCOc1cc(/C=C/c2cc(CO)c3c(c2)C[C@@H]2C(C)(C)[C@H](O)CC[C@@]2(C)O3)cc(OC)c1C/C=C(\C)CCC=C(C)C` is less than 3000 nM? Fulfilled

Could you please tell me whether GI50 recorded for `COc1cc(/C=C/c2cc(F)c3c(c2)C[C@@H]2C(C)(C)[C@H](O)CC[C@@]2(C)O3)cc(O)c1C/C=C(\C)CCC=C(C)C` is less than 3000 nM? Not fulfilled

Could you please tell me whether GI50 recorded for `COCOc1cc(/C=C/c2cc(C=O)c3c(c2)C[C@@H]2C(C)(C)[C@H](O)CC[C@@]2(C)O3)cc(OC)c1C/C=C(\C)CCC=C(C)C` is less than 3000 nM? Not fulfilled

Could you please tell me whether GI50 recorded for `COc1cc(/C=C/c2cc3c(c(OC)c2)O[C@]2(C)CC[C@@H](O)C(C)(C)[C@H]2C3)cc(O)c1C/C=C(\C)CCC=C(C)C` is less than 3000 nM? Fulfilled

Could you please tell me whether GI50 recorded for `COc1cc(/C=C/c2ccc3c(c2)C[C@@H]2C(C)(C)[C@H](O)CC[C@@]2(C)O3)cc(O)c1C/C=C(\C)CCC=C(C)C` is less than 3000 nM? Not fulfilled

---

System: UACC-257
Assay: Growth inhibition of human UACC257 cells after 48 hrs by sulforhodamine B assay
Format: functional
Settings: UACC-257, 48 h, read-out: pTGI (converted)
# TGI per record follows

[[record]]
smiles_repr = "COc1cc(/C=C/c2cc(F)c3c(c2)C[C@@H]2C(C)(C)[C@H](O)CC[C@@]2(C)O3)cc(O)c1C/C=C(\\C)CCC=C(C)C"
measure_name = "TGI"
data_value = "38.9 µM"

[[record]]
smiles_repr = "COc1cc(/C=C/c2ccc3c(c2)C[C@@H]2C(C)(C)[C@H](O)CC[C@@]2(C)O3)cc(O)c1C/C=C(\\C)CCC=C(C)C"
measure_name = "TGI"
data_value = "55 µM"

[[record]]
smiles_repr = "COc1cc(/C=C/c2cc(O)c3c(c2)C[C@@H]2C(C)(C)[C@H](O)CC[C@@]2(C)O3)cc(O)c1C/C=C(\\C)CCC=C(C)C"
measure_name = "TGI"
data_value = "23.4 µM"


Sample `COc1cc(/C=C/c2cc3c(c(OC)c2)O[C@]2(C)CC[C@@H](O)C(C)(C)[C@H]2C3)cc(O)c1C/C=C(\C)CCC=C(C)C` — what was its TGI? 14.1 µM
